Assay remarks: Inhibition of recombinant human IL2R/IL2-induced mouse 32D-beta cell proliferation preincubated for 30 mins with protein followed by cell addition measured after 2.5 days by Alamar blue reduction assay
Study conditions: Homo sapiens; read-out: IC50
Provide the reported pIC50 of each item.
One number for each entry, as −log10 of the molar value.

Before answering, review these 5 worked examples.
[
  {
    "Input smiles": "Cn1c(Cc2nn(C)c(=O)c3ccccc23)nnc1S(=O)(=O)CCCCCCCC(=O)Nc1ccc(Br)cc1Br",
    "pIC50": 5.80
  },
  {
    "Input smiles": "Cn1nc(Cc2nnc(SCCCCCCCCCCC(=O)Nc3ccc(Cl)cc3Cl)o2)c2ccccc2c1=O",
    "pIC50": 5.12
  },
  {
    "Input smiles": "COc1ccc(NC(=O)CCCCCCCSc2nnc(Cc3nn(C)c(=O)c4ccccc34)n2C)c(O)c1",
    "pIC50": 6.00
  },
  {
    "Input smiles": "CC(C)COc1ccc(NC(=O)CSc2nnc(Cc3nn(C)c(=O)c4ccccc34)n2C)cc1",
    "pIC50": 4.52
  },
  {
    "Input smiles": "Cn1c(Cc2nn(C)c(=O)c3ccccc23)nnc1SCCCCCCCC(=O)Nc1ccc(Cl)cc1",
    "pIC50": 6.10
  }
]

Would you kindly look at the next entry?
Task: Given Cn1nc(Cc2nnc(SCCCCCCCC(=O)Nc3ccc(Cl)cc3Cl)o2)c2ccccc2c1=O , respond with its pIC50.
Output: 6.10
